Molecular target: Retinoic acid receptor RXR-alpha (Rattus norvegicus) (UniProt Q05343)
Conditions: CV-1
Description: In vitro synergistic elevation of transcriptional activation in CV-1 cells expressing RAR and RXR with 3 nm TTNBP
Consider the following compounds; for each one, report its Synergy.
Reply with a number, then the unit it belongs to.

Give the measured Synergy of CC(/C=C/c1sccc1-c1cc(C(C)C)cc(C(C)C)c1OCC(F)(F)F)=C\C(=O)O .
2 fold

What do you have for CC(/C=C/c1sccc1-c1cc(C(C)(C)C)cc(C(C)(C)C)c1OCCC(F)F)=C\C(=O)O ?
1.9 fold

What do you have for CCc1cc(-c2ccsc2/C=C/C(C)=C/C(=O)O)c(OCCCF)c(C(C)(C)C)c1 ?
1.9 fold

What do you have for CCCOc1c(C2=C(/C=C/C(C)=C/C(=O)O)CCC2)cc(C(C)C)cc1C(C)C ?
1.9 fold

What do you have for C/C(=C/C=C/C(C)=C/C(=O)O)c1cc(C(C)(C)C)cc(C(C)(C)C)c1OCC(F)F ?
2 fold

What do you have for CC(/C=C/C1=C(c2cc(C(C)C)cc(C(C)C)c2OCC(F)F)CCC1)=C\C(=O)O ?
3.5 fold

What do you have for CC(/C=C/c1sccc1-c1cc(C(C)C)cc(C(C)C)c1OCC(F)F)=C\C(=O)O ?
3 fold

What do you have for CC(/C=C/C1=C(c2cc(C(C)C)cc(C(C)C)c2OCC(F)(F)F)CCC1)=C\C(=O)O ?
3.1 fold

What do you have for CC(/C=C/C1=C(c2cc(C(C)C)cc(C(C)C)c2OCCCF)CCC1)=C\C(=O)O ?
2.1 fold

---

Molecular target: Retinoic acid receptor RXR-alpha (Rattus norvegicus, UniProt Q05343)
Sequence (Q05343 whole entry): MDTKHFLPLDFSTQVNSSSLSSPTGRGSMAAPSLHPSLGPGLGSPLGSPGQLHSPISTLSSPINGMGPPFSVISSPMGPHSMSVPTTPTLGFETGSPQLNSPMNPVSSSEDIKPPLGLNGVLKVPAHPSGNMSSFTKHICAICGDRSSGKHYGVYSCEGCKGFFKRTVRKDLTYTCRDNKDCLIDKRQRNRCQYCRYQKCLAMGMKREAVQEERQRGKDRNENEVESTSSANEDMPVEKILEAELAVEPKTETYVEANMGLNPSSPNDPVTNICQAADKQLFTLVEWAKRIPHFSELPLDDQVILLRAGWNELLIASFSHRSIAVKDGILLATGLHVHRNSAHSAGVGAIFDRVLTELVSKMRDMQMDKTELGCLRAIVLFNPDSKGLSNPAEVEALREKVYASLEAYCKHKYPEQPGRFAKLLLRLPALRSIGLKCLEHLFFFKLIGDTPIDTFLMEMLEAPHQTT
Test: In vitro evaluation against RXR-alpha in CV-1 cells by cotransfection assay was determined
Assay type: cell-based
measured-quantity: pIC50
Expect pIC50 as a plain number equal to -log10 of the molar concentration.

Give the measured pIC50 of CC(/C=C/c1sccc1-c1cc(C(C)C)cc(C(C)C)c1OCC(F)F)=C\C(=O)O .
7.94

What do you have for CCc1cc(-c2ccsc2/C=C/C(C)=C/C(=O)O)c(OCC(F)F)c(C(C)(C)C)c1 ?
7.81

What do you have for CC(/C=C/c1sccc1-c1cc(C(C)(C)C)cc(C(C)(C)C)c1OCCC(F)F)=C\C(=O)O ?
8.06
